# Experimental Target: Beta-lactamase TEM (Escherichia coli, UniProt P62593)
# Sequence (P62593 whole entry): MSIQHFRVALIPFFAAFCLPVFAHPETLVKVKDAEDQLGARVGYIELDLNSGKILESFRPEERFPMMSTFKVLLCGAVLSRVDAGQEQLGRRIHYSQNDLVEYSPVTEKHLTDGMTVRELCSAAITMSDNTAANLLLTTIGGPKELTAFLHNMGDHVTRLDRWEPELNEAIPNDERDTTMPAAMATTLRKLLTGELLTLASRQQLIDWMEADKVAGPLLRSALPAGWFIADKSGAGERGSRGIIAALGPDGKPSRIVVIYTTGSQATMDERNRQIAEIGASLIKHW
# Assay Procedure: Inhibitory activity against TEM-1 (class A) beta-lactamase
Readout Label: IC50 (nM)
API: value field is a number in nM; no unit string.

compound=C[C@]1(Cn2ccnn2)[C@H](C(=O)[O-])N2C(=O)[C@@H](CO)[C@H]2S1(=O)=O.[Na+] experimental_target="Beta-lactamase TEM (Escherichia coli, UniProt P62593)" readout_label=IC50 value_observed=6

Reported IC50 of CC1(C=CC#N)[C@H](C(=O)O)N2C(=O)C[C@H]2S1(=O)=O (single isomer, unassigned) : 42

For record CO/N=C/C1(C)[C@H](C(=O)O)N2C(=O)[C@@H](CO)[C@H]2S1(=O)=O (single isomer, unassigned) the listed IC50 is 64

---

# Tested on: Escherichia coli
# Assay Procedure: In vitro inhibitory activity against Escherichia coli
# Format: functional
Readout Label: MIC (µg/mL)
Form entry: value (µg/mL) — number only.

query_smiles=C[C@]1(Cn2ccnn2)[C@H](C(=O)[O-])N2C(=O)[C@@H](CO)[C@H]2S1(=O)=O.[Na+] value_observed=2
query_smiles=C[C@]1(/C=C/C#N)[C@H](C(=O)[O-])N2C(=O)[C@@H](CO)[C@H]2S1(=O)=O.[Na+] value_observed=16

We now examine a further compound.
Form field MIC for item C[C@]1(/C=C\C#N)[C@H](C(=O)[O-])N2C(=O)[C@@H](CO)[C@H]2S1(=O)=O.[Na+] on Escherichia coli: 4

---

# System: Escherichia coli
# Assay Procedure: In vitro inhibitory activity against Escherichia coli
# Assay type: functional
Listed next: entries and their corresponding MIC.
Expressed in µg/mL, but write only the number.

For orientation, consider the following solved cases.
compound="CO/N=C/C1(C)[C@H](C(=O)O)N2C(=O)[C@@H](CO)[C@H]2S1(=O)=O (single isomer, unassigned)" result_unit=µg/mL value_observed=8
compound="CC1(C=CC#N)[C@H](C(=O)O)N2C(=O)C[C@H]2S1(=O)=O (single isomer, unassigned)" result_unit=µg/mL value_observed=4

Proceed to the following item.
Recorded result, C[C@]1(Cn2ccnn2)[C@H](C(=O)[O-])N2C(=O)C[C@H]2S1(=O)=O.[Na+] [TAZOBACTAM SODIUM] , MIC: 2

---

# Experimental Target: Beta-lactamase (Escherichia coli K-12, UniProt P00811)
# Sequence (P00811 whole entry): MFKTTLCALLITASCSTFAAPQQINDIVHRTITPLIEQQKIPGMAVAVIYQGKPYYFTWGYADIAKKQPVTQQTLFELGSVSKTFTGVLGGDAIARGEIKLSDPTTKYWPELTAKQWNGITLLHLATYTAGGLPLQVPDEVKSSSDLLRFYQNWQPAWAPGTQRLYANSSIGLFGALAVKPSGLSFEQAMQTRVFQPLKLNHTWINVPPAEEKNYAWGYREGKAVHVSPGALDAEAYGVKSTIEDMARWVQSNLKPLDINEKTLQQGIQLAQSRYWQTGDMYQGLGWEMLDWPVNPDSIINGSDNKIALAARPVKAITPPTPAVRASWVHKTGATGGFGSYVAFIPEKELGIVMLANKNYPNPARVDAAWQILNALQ
# Assay Procedure: Inhibitory activity against AmpC (class C) beta-lactamase
Readout Label: IC50

Please review the following examples before continuing.
compound="CC1(C=CC#N)[C@H](C(=O)O)N2C(=O)C[C@H]2S1(=O)=O (single isomer, unassigned)" experimental_target="Beta-lactamase (Escherichia coli K-12, UniProt P00811)" value_observed="1130 nM"
compound="CO/N=C/C1(C)[C@H](C(=O)O)N2C(=O)[C@@H](CO)[C@H]2S1(=O)=O (single isomer, unassigned)" experimental_target="Beta-lactamase (Escherichia coli K-12, UniProt P00811)" value_observed="280 nM"
compound=C[C@]1(/C=C/C#N)[C@H](C(=O)[O-])N2C(=O)[C@@H](CO)[C@H]2S1(=O)=O.[Na+] experimental_target="Beta-lactamase (Escherichia coli K-12, UniProt P00811)" value_observed="280 nM"

Lab note: next compound to report on.
Lookup result for C[C@]1(/C=C\C#N)[C@H](C(=O)[O-])N2C(=O)[C@@H](CO)[C@H]2S1(=O)=O.[Na+] ; measured IC50: 270 nM

Origin of the recorded values: ChEMBL document CHEMBL1131672
